# assayed system: tSTATcc-N460H (UniProt P42224 132-713, N460H;A656C;N658C)
# Sequence (P42224 132-713 N460H/A656C/N658C): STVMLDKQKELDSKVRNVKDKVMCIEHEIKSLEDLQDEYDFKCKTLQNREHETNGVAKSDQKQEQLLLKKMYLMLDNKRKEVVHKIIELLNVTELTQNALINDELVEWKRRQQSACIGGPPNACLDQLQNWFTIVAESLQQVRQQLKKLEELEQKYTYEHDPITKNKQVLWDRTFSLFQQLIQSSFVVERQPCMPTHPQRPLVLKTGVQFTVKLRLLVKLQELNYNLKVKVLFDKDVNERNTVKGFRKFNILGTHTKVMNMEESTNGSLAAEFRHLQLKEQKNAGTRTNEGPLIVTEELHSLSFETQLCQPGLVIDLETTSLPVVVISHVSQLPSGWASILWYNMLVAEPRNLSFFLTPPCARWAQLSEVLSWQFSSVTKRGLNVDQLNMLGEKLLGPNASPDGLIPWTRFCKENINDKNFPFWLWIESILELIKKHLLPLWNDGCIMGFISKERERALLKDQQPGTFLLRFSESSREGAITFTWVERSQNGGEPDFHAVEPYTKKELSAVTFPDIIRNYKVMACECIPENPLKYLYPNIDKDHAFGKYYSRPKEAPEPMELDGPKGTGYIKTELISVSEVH
# assay notes: Spec-seq
Below, each entry is listed with its recorded binding signal.
quantity kind: binding signal

binder="0T_GAS (dsDNA) DNA 1: GCTGCCACTAGAGTTTTTTTAGGAAAAGATCATCAAGAGCACACGGG DNA 2: CCCGTGTGCTCTTGATGATCTTTTCCTAAAAAAACTCTAGTGGCAGC" readout_value="1.8 kT (ddG vs 2C_GAS)"
binder="1T_GAS (dsDNA) DNA 1: GCTGCCACTAGAGTTTTTCTAGGAAAAGATCATCAAGAGCACACGGG DNA 2: CCCGTGTGCTCTTGATGATCTTTTCCTAGAAAAACTCTAGTGGCAGC" readout_value="1.7 kT (ddG vs 2C_GAS)"
binder="3C_GAS (dsDNA) DNA 1: GCTGCCACTAGAGTTTTCCCGGGAAAAGATCATCAAGAGCACACGGG DNA 2: CCCGTGTGCTCTTGATGATCTTTTCCCGGGAAAACTCTAGTGGCAGC" readout_value="1.6 kT (ddG vs 2C_GAS)"
binder="1C_GAS (dsDNA) DNA 1: GCTGCCACTAGAGTTTTTTCGGGAAAAGATCATCAAGAGCACACGGG DNA 2: CCCGTGTGCTCTTGATGATCTTTTCCCGAAAAAACTCTAGTGGCAGC" readout_value="1.8 kT (ddG vs 2C_GAS)"
binder="2T_GAS (dsDNA) DNA 1: GCTGCCACTAGAGTTTTCCTAGGAAAAGATCATCAAGAGCACACGGG DNA 2: CCCGTGTGCTCTTGATGATCTTTTCCTAGGAAAACTCTAGTGGCAGC" readout_value="1.7 kT (ddG vs 2C_GAS)"
